Test system: E. coli BW25113 ΔtolC growth inhibition, OD615
Assay: growth inhibitors of E. coli tolC mutant, dose response, strain BW25113 ΔtolC::kan (AID 617);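 further: growth read after 20 h at 37 °C with compound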
Entries and their IC50

As a guide, the following entries are already answered.
compound: COc1ccc2[nH]c(=O)c(CN(C(=O)NC3CCCCC3)C3CCCCC3)cc2c1
IC50: 19.4 µM
--
compound: Cc1cccc(Cc2c(C)nc3c(C(=O)NCc4ccco4)cnn3c2C)c1
IC50: 49.6 µM
--
compound: Cc1nnc(NC(=O)c2ccc(S(=O)(=O)N(C)Cc3ccccc3)cc2)o1
IC50: 3.87 µM
--
compound: O=C(Cn1c2c(c(-c3ccccc3)cc1=O)CCCC2)N1CCCCCC1
IC50: 6.09 µM

[ask] Entry `Cc1cccc(Nc2nc(-c3ccccn3)cs2)n1` has what IC50?
[reply] 0.68 µM

[ask] Try this compound next: COc1ccccc1C1SCCN1S(=O)(=O)c1cccc(C(F)(F)F)c1 (stereo unspecified)
[reply] 16.4 µM

[ask] Try this compound next: `CCc1ccccc1N(CC)C(=O)CCc1nc(-c2ccc(C)cc2)no1`
[reply] 11.2 µM

[ask] Try this compound next: `O=C(N1CCN(c2ccccc2F)CC1)C12CC3CC(CC(C3)C1)C2`
[reply] 18.6 µM

[ask] Try this compound next: `Fc1cccc(Cl)c1Cn1nnc(-c2ccc3c(c2)OCO3)n1`
[reply] 20.3 µM

[ask] Try this compound next: `O=C(Nc1cccc(Cl)c1)Nc1nccs1`
[reply] 11 µM

[ask] Try this compound next: `O=C(NCc1ccccc1)c1c[nH]c2ccc(S(=O)(=O)Nc3ccc4c(c3)OCCO4)cc2c1=O`
[reply] 9.4 µM

====

Entries and their pIC50
Tested on: E. coli BW25113 ΔtolC growth inhibition, OD615
Experiment: growth inhibitors of E. coli tolC mutant, dose response, strain BW25113 ΔtolC::kan (AID 617);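 further: growth read after 20 h at 37 °C with compound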
# log scale: pIC50 equals minus log10 of the concentration in mol/L

As a guide, the following entries are already answered.
molecule: O=C(c1cc(-c2ccccc2)on1)N1CCN(Cc2ccc3c(c2)OCO3)CC1
pIC50: 4.68

molecule: O=S(=O)(Nc1cccc2ncccc12)c1cccs1
pIC50: 5.28

molecule: Fc1cccc(-c2cc3nc4c(c(N5CCOCC5)n3n2)CCCC4)c1
pIC50: 4.74

molecule: COc1cc(S(=O)(=O)N2CCC(O)(c3cccc(C(F)(F)F)c3)CC2)ccc1-n1cnnn1
pIC50: 4.96

molecule: CCCCOc1ccc(S(=O)(=O)N2CCCCCC2)cc1
pIC50: 4.62

[ask] Entry `CCCOc1ccccc1NC(=O)c1c(-c2ccccc2)noc1C` has what pIC50?
[reply] 4.82

[ask] Try this molecule next: COc1ccc(C2(O)CC3CCC(C2)N3c2cc(C)nc(-c3ccccc3)n2)cc1 (stereo unspecified)
[reply] 4.93

[ask] Try this molecule next: `COc1ccc(-c2noc(CN3CCC(Cc4ccccc4)CC3)n2)cc1`
[reply] 4.76

[ask] Try this molecule next: O=C1c2ccccc2C(Nc2cccc(C(F)(F)F)c2)N1Cc1ccco1 (stereo unspecified)
[reply] 5.14

[ask] Try this molecule next: COCCCN1C(=O)c2[nH]nc(-c3ccccc3O)c2C1c1ccc(Cl)cc1 (stereo unspecified)
[reply] 5.22

[ask] Try this molecule next: `O=C(Nc1nc(-c2ccccc2)cs1)c1cccs1`
[reply] 5.23

====

Tested on: E. coli BW25113 ΔtolC growth inhibition, OD615
Test: growth inhibitors of E. coli tolC mutant, dose response, strain BW25113 ΔtolC::kan (AID 617);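 further: growth read after 20 h at 37 °C with compound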
pIC50: −log10 of the molar value.
reported-property: pIC50

As a guide, the following entries are already answered.
compound: Cc1ccc2c(c1)NC(=O)C(CC(=O)NCCCN1CCN(c3cc(Cl)ccc3C)CC1)O2 (stereo not drawn)
pIC50: 5.57

compound: C=CCn1c(NC(C)c2cc(Cl)ccc2O)nc2ccccc21 (stereo not drawn)
pIC50: 5.17

compound: CC(C)c1ccc(-c2nnn(Cc3nc4ccccc4s3)n2)cc1
pIC50: 4.64

[ask] Entry `Cc1cc(C)n(-c2nc(NC(C)C)nc(NC(C)C)n2)n1` has what pIC50?
[reply] 5.53

[ask] Try this compound next: O=C(Nc1ccc(C(F)(F)F)cc1)C1CCCN1S(=O)(=O)c1cccc2cccnc12 (stereo not drawn)
[reply] 4.65

[ask] Try this compound next: `Oc1c(CN2CCN(c3ccccn3)CC2)cc(Cl)c2cccnc12`
[reply] 4.94

[ask] Try this compound next: `CN(C)[C@@H]1C(=O)C(C(N)=O)=C(O)[C@@]2(O)C(=O)C3=C(O)c4c(O)ccc(Cl)c4[C@@H](O)[C@H]3C[C@@H]12`
[reply] > 6.70

====

Tested on: E. coli BW25113 ΔtolC growth inhibition, OD615
Test: growth inhibitors of E. coli tolC mutant, dose response, strain BW25113 ΔtolC::kan (AID 617);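 further: growth read after 20 h at 37 °C with compound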
reported-property: IC50

As a guide, the following entries are already answered.
compound: O=S1(=O)Nc2c(ccc3cccnc23)-c2ccccc21
IC50: 1.31 µM
--
compound: CC1(C)CC(=O)C=C(NCCN2CCN(C(=O)Nc3ccc(Cl)c(Cl)c3)CC2)C1
IC50: 20.3 µM

Now look at this entry.
[ask] Entry CCCOc1ccccc1C1CC(=O)Nc2cc3c(cc21)OCCO3 (centres undefined) has what IC50?
[reply] 24.1 µM

====

Entries and their pIC50
Test system: E. coli BW25113 ΔtolC growth inhibition, OD615
Experiment: growth inhibitors of E. coli tolC mutant, dose response, strain BW25113 ΔtolC::kan (AID 617);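 further: growth read after 20 h at 37 °C with compound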
# log scale: pIC50 equals minus log10 of the concentration in mol/L

[ask] Entry `C/C(O)=c1/ccc2cccc3nc(C)nc1c23` has what pIC50?
[reply] 4.58

[ask] Try this molecule next: `COc1ccc2[nH]c3c(=O)n(CCCCC(=O)N4CCCC4)c(=S)[nH]c3c2c1`
[reply] 6.12

[ask] Try this molecule next: N#Cc1c(NC(NC(=O)c2ccco2)C(=O)c2ccccc2)sc2c1CCCC2 (stereo not drawn)
[reply] 4.87

[ask] Try this molecule next: `Cc1noc(NS(=O)(=O)c2ccc(NC(=O)COc3ccc(Cl)cc3Cl)cc2)c1C`
[reply] 5.03

[ask] Try this molecule next: `Cc1oc(C(C)(C)C)cc1C(=O)Nc1ccc2c(c1)OCCO2`
[reply] 4.72

[ask] Try this molecule next: CC1CCCN(S(=O)(=O)c2ccc(NC(=O)Cn3nnc(-c4ccccc4F)n3)cc2)C1 (stereo not drawn)
[reply] 4.58

[ask] Try this molecule next: `COC(=O)c1sccc1NC(=O)c1ccc(Cl)s1`
[reply] 5.40

[ask] Try this molecule next: `COc1ccc(-c2nc3oc4cc(OC)ccc4c(=O)c3c(=O)n2Cc2ccco2)cc1`
[reply] 5.63

[ask] Try this molecule next: O=C1CC(c2ccco2)CC2=C1C1c3ccccc3C(=O)N1c1ccccc1N2 (stereo not drawn)
[reply] 4.64

====

Tested on: E. coli BW25113 ΔtolC growth inhibition, OD615
Assay: growth inhibitors of E. coli tolC mutant, dose response, strain BW25113 ΔtolC::kan (AID 617);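 further: growth read after 20 h at 37 °C with compound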
pIC50: −log10 of the molar value.
Use 5 as the dividing line for pIC50, with the line itself on the 1 (yes) side and lower values as 0 (no).

compound: N#Cc1ccc(NC(=O)Nc2ccc(Cl)cc2)cc1
classification: 1 (yes)
//
compound: COc1cc(NS(=O)(=O)c2ccc(Br)cc2)c(OC)cc1NC(=O)c1ccco1
classification: 0 (no)
//
compound: O=C(CSc1nnnn1C1CCCCC1)Nc1cccc(NC(=O)c2ccco2)c1
classification: 0 (no)
//
compound: O=c1[nH]c(=O)n(C2CCCCCC2)c(O)c1C=NCc1ccc(F)cc1
classification: 0 (no)
//
compound: O=C1NC(Nc2nc3ccccc3s2)(C(F)(F)F)C(=O)N1C1CCCCC1 (stereo unspecified)
classification: 1 (yes)

Alright, here's another compound for you.
[ask] Determine whether this compound has pIC50 no lower than 5: `O=C(CCNc1cc(Cl)cc(Cl)c1)c1ccco1`
[reply] 0 (no)

====

Tested on: E. coli BW25113 ΔtolC growth inhibition, OD615
Assay: growth inhibitors of E. coli tolC mutant, dose response, strain BW25113 ΔtolC::kan (AID 617);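 further: growth read after 20 h at 37 °C with compound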
reported-property: IC50

As a guide, the following entries are already answered.
structure-string: Cc1ccc2nc(NC(=O)CNS(=O)(=O)c3ccc(Br)s3)sc2c1
IC50: 47.7 µM

structure-string: CCCCN(C)S(=O)(=O)c1ccc(C(=O)Nc2nnc(CSC)o2)cc1
IC50: 0.86 µM

structure-string: CC(C)COC(=O)NCCOC(=O)Nc1cccc(Cl)c1
IC50: 19.6 µM

structure-string: N#C/C(=C\c1cccs1)Sc1nc2ccccc2s1
IC50: 9.02 µM

structure-string: CCCCCCn1c(N2CCN(c3ccccc3)CC2)nc2c1c(=O)n(C)c(=O)n2C
IC50: 10.1 µM

Now look at this entry.
[ask] E. coli BW25113 ΔtolC growth inhibition, OD615 / IC50 / `CCCn1c2ccccc2c2nc3ccccc3nc21` : value?
[reply] 73.4 µM

This collection of values is drawn from PubChem BioAssay AID617.
